- tgt: T1, PUF4 RNA-binding domain (Saccharomyces cerevisiae, UniProt P25339 537-888)
- T1 sequence: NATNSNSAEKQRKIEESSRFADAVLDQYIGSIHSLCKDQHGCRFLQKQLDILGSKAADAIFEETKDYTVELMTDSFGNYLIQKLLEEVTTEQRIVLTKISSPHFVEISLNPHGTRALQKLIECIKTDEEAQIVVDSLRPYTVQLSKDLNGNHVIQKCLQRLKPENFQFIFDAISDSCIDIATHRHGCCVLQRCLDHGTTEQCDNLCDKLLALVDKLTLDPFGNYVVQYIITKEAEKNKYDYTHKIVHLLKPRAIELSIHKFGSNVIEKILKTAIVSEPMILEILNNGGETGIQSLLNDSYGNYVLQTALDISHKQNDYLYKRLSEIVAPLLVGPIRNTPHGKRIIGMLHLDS
- assay: Mg; RNA-MaP; 20 mM Na-HEPES pH 7.4, 30 mM KOAc, 0.75 mM MgCl2, 0.1% Tween-20, 5% glycerol, 0.1 mg/mL BSA, 2 mM DTT; 25 C; 0.0125-409.6 nM protein
- conditionDetails: tags: N-His6-TEV cleaved; C-SNAP kept, Cy3B-labelled; label: tethered on chip by stalled RNA polymerase
pKd: −log10 of the molar value.
Decision: pKd compared against 8; not below it gives 1 (yes), below it gives 0 (no).

binder | classAssignment
UCUCUUUGUAUUAUCCCUUUAUCUCUU (ssRNA) [Ie_S1_P5E.1_K5.1_C5.1_H5.1_A5.1_F5.1_[+8CCCTT]_T5.1] | 0 (no)
Id_ii_S2_P3E.3_K3.2_C3.2_[C-2A]_[T-1G]_H3.2_A3.1_F3.1_T3.2_[T9A] (ssRNA) RNA: UUUGAUUAAUAUGAUAUCGUUCUUUCUAGUAUAUAUAAAUUCUUUCUCGAUAUCAUAUUAAUCUUU | 0 (no)
Ic_S4_P4E.1_K4.1_C4.1_H4.1_A4.1_[A6T]_[T7C]_F4.1_[T8A]_[A9C]_T4.1 (ssRNA) RNA: UUUGACAACUGAUCGUUCUUUCUUGUAUUCACUUCUUUCUCGAUCAGUUGUCUUU | 0 (no)
UCUCUUUGUAACUGCUCUCUU (ssRNA) [Ic_S1_P4E.1_K4.1_C4.1_H4.1_A4.1_[T5A]_[A6C]_F4.1_[T8G]_[A9C]_T4.1] | 0 (no)
Ie_S2_P3E.2_K3.1_C3.2_H3.1_[+4CCT]_A3.1_F3.1_T3.2 (ssRNA) RNA: UUUGAUUAAUAUGAUAUCGUUCUUUCUCUUGUACCUUAUAUAUUCUUUCUCGAUAUCAUAUUAAUCUUU | 1 (yes)
UCUCUUUGUAGUUCCUUCUCUU (ssRNA) [Ic_S1_P5E.1_K5.1_C5.1_H5.1_A5.1_[T5G]_[A7T]_F5.1_[T8C]_[T9C]_[A10T]_T5.1] | 0 (no)
UCUCUUUGUAGUCACUCUCUU (ssRNA) [Ic_S1_P4E.1_K4.1_C4.1_H4.1_A4.1_[T5G]_[A6T]_[T7C]_F4.1_[T8A]_[A9C]_T4.1] | 0 (no)
UCUCUUUGUAACCAUCUCUU (ssRNA) [Ic_S1_P3E.1_K3.1_C3.1_H3.1_A3.1_[T5A]_[A6C]_F3.1_[T7C]_T3.1] | 0 (no)
Id_ii_S2_P3E.2_K3.1_C3.2_[C-2A]_H3.1_A3.1_F3.1_T3.2_[T9C]_[A10G] (ssRNA) RNA: UUUGAUUAAUAUGAUAUCGUUCUUUCUAUUGUAUAUACGUUCUUUCUCGAUAUCAUAUUAAUCUUU | 0 (no)
Ic_S4_P4E.1_K4.1_C4.1_H4.1_A4.1_[T7A]_F4.1_[T8C]_[A9G]_T4.1 (ssRNA) RNA: UUUGACAACUGAUCGUUCUUUCUUGUAUAACGUUCUUUCUCGAUCAGUUGUCUUU | 0 (no)

Task: Decide: pKd of UCUCUUAGACACUUAUUACCUCUCUU (ssRNA) [Id_ii_S1_P5E.4_K5.3_C5.2_[C-2A]_[T-1G]_H5.3_A5.1_F5.1_T5.2_[T11C]_[A12C]] >= 8?
Result: 0 (no)

Task: Next binder up: Ie_S4_P4E.1_K4.1_C4.1_H4.1_[+1CCCT]_A4.1_F4.1_T4.1 (ssRNA) RNA: UUUGACAACUGAUCGUUCUUUCUUCCCUGUAUAUUAUUCUUUCUCGAUCAGUUGUCUUU
Result: 1 (yes)

Task: Next binder up: Ic_S2_P5E.1_K5.1_C5.1_H5.1_A5.1_[T5A]_[T6A]_F5.1_[T8C]_[T9A]_[A10C]_T5.1 (ssRNA) RNA: UUUGAUUAAUAUGAUAUCGUUCUUUCUUGUAAAACACUUCUUUCUCGAUAUCAUAUUAAUCUUU
Result: 0 (no)

Task: Next binder up: Id_ii_S4_P3E.2_K3.1_C3.2_[C-2A]_[T-1C]_H3.1_A3.1_F3.1_T3.2_[A10C] (ssRNA) RNA: UUUGACAACUGAUCGUUCUUUCUACUGUAUAUAUCUUCUUUCUCGAUCAGUUGUCUUU
Result: 1 (yes)

Task: Next binder up: UCUCUUUGUAUCCUCUCUCUU (ssRNA) [Ic_S1_P4E.1_K4.1_C4.1_H4.1_A4.1_[A6C]_[T7C]_F4.1_[A9C]_T4.1]
Result: 0 (no)
